From: patent US20150031674A1

target: human recombinant PAK1-KD protein (Homo sapiens, UniProt Q13153); assay: PAK1-KD (Kinase Domain) IC50 Zlyte Assay (FRET peptide substrate phosphorylation); conditions: Z'-LYTE, Biological Example 1
Sequence (Q13153 270-521 limits assumed): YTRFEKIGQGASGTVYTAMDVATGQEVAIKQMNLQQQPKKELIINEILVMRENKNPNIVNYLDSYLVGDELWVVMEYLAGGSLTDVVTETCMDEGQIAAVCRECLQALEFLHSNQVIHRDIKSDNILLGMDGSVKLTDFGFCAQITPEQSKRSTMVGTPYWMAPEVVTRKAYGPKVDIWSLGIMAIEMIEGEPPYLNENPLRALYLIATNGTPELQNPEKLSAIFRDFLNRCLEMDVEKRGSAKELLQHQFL
Assignment: determine reported Ki for the given molecules.
Give bare numbers, in nM.

| MOLECULE | QUANTITATIVE READOUT |
| --- | --- |
| CCNc1ncc2cc(-c3ccc(-c4cccc(C)n4)cc3C)c(=O)n(CCOCCN)c2n1 | 3.3 |
| CNc1ncc2cc(-c3ccc(-c4cccc(C)n4)cc3C)c(=O)n(CCC3CNCCO3)c2n1 (single isomer, unassigned) [Example I-110] | 3 |
| CNc1ncc2cc(-c3ccc(-c4cccc(C)n4)cc3Cl)c(=O)n(CCOCCN)c2n1 | 1.4 |
| CCNc1ncc2cc(-c3ccc(-c4cncc(C)n4)cc3Cl)c(=O)n(CCC3CCNC(=O)C3)c2n1 (centres unmarked) | 96.2 |
| Cc1cccc(-c2ccc(-c3cc4cnc(NC5COC5)nc4n(CC(=O)N4CCNCC4)c3=O)c(C)c2)n1 | 54.5 |

Please go through the list and note Ki for each molecule.
1. Cc1cncc(-c2ccc(-c3cc4cnc(N)nc4n(CC4OCC(N)CO4)c3=O)c(Cl)c2)n1 (centres unmarked)
2. CNc1ncc2cc(-c3ccc(-c4cncc(C)n4)cc3Cl)c(=O)n(CCC3CCNC3=O)c2n1 (single isomer, unassigned) [Example I-102]
3. CNc1ncc2cc(-c3ccc(-c4cccc(C)n4)cc3Cl)c(=O)n(CCS(=O)(=O)N3CCNCC3)c2n1

18.6
38.1
4
